Could you please report measured normalized growth for the items listed next?
# assay notes: chemical genetic growth profiling, strain panel (AID 1159580);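 further: tested at 20 µM; growth read once vehicle control cultures reached saturation at 30 °C; 1 = growth at the plate median or of vehicle wells; lower values mean less growth of the strain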
# measurement parameters: S. cerevisiae deletion strains, growth OD, locus YCL029C, strain bik1, stronger effect = lower value
The whole screen tested about 5,500 compounds, of which about 2,000 (36%) were called active. Inconclusive results (about 18%) are left out. The list shows a part of the results.
Lab note: jot the number down without any unit.

Looking for the measured normalized growth of C=C[C@@]1(C)CC(=O)[C@@]2(O)[C@](C)(O1)[C@@H](OC(C)=O)[C@@H](O)C1C(C)(C)CC[C@H](O)[C@@]12C (some centres not stated) , can you help?
0.977

Same read-out for `Cc1ccc(C(=O)c2ccc(CC(=O)O)n2C)cc1` ?
0.968

Same read-out for O=c1[nH]c(=O)n(C2C[C@H](O)[C@@H](CO)O2)cc1C(F)(F)F (some centres not stated) ?
0.971

Same read-out for CN[C@@H]1C(OC2[C@H](O[C@H]3[C@H](O)[C@@H](O)[C@H](N=C(N)N)[C@@H](O)[C@@H]3N=C(N)N)OC(C)[C@]2(O)CO)OC(CO)C(O)C1O (some centres not stated) ?
0.978

Same read-out for NCC[C@@H](O)C(=O)N[C@@H]1C[C@H](N)[C@@H](O[C@H]2O[C@H](CN)[C@@H](O)[C@H](O)[C@H]2O)[C@H](O)[C@H]1O[C@H]1O[C@H](CO)[C@@H](O)[C@H](N)C1O (some centres not stated) ?
1.02

Same read-out for COC[C@]12CN(C=O)C3[C@@H]4[C@H](OC)C1[C@]3(C1CC3(O)C(OC)C(O)C4(OC(C)=O)C1C3OC(=O)c1ccccc1)[C@@H](OC)C[C@H]2O (some centres not stated) ?
0.997

Same read-out for `Cc1cc(CC(=O)O)n(C)c1C(=O)c1ccc(Cl)cc1` ?
1.02
